Entries annotated with measured growth inhibition
# Method: NCI Yeast Anticancer Drug Screen. Data for the mec2-1 strain (AID 157)
# Measurement setup: S. cerevisiae mec2-1 strain, at 50.0 µM, hits give high values
# Protocol: Growth inhibition of yeast strains with defined genetic alterations is measured as a screen for potential anti-cancer activity. Selected strains with alterations in DNA damage repair or cell cycle control were exposed to compounds and growth inhibition was measured relative to vehicle treated controls. The strain used in this assay is mec2-1
This is part of a sample that, as a whole, favours compounds with a hit. Of some 79,000 tested, about 15% had one in any assay. Active and inactive are the calls of the source. Cut-off read from the data, not from the text of the source: active = growth inhibition above about 70%; inactive = the rest.

The cases that follow already have their growth inhibition on record.
>>> val("CC(=O)NC1C(OC2C(CO)OC(OCC3OC(n4ccc(N)nc4=O)C(O)C3O)C(NC(C)=O)C2O)OC(CO)C(O)C1O (configuration not stated)")
"48.4% (inactive)"
>>> val("CCC(=O)n1ncc2ccc([N+](=O)[O-])cc21")
"5.15% (inactive)"
>>> val("NNC(=O)N/N=C1\\C(=O)N(c2ccc(Cl)c(Cl)c2)C(=O)C(=O)C1c1nc2ccccc2s1 (configuration not stated)")
"5.95% (inactive)"
>>> val("Cc1ccc(Nc2ccc(O)cc2)cc1")
"-2.1% (inactive)"
>>> val("CC(=O)c1ccccc1C(C)c1ccc(C)c2ccccc12 (configuration not stated)")
"12.4% (inactive)"
>>> val("O=C(Nc1ccc(Br)cc1)Oc1ccc(Cl)cc1C(=O)c1ccccc1")
"8.5% (inactive)"
>>> val("CCOC(=O)c1c[nH]c(=S)n(C)c1=O")
"-10.2% (inactive)"
>>> val("O=C(Nc1cc(Cl)c(I)c(Cl)c1)C(F)(F)F")
"97.4% (active)"
>>> val("COC(=O)Nn1cc(C(C(C)=O)C(C)=O)c(C(C)=O)c1C")
"-0.15% (inactive)"
>>> val("CS(=O)(=O)OCCC(COS(C)(=O)=O)NC(=O)c1ccccc1 (configuration not stated)")
"-8.95% (inactive)"

Exercise: Give its growth inhibition value. Item: COCC(=O)Nc1ccccc1
Solution: 6.05% (inactive)

Exercise: Again, but for O=C(N/N=C/C=C/c1ccccc1)c1ccccc1O
Solution: 43% (inactive)
